- assay-method-text: Metabolic stability in dog liver microsome assessed as half-life
- Type: ADME, Canis lupus familiaris
- experimental-parameters: liver microsomes
property-name: half-life (min)
Give the value, in units of min, as a plain number.

**Q:** Tell me measured half-life for Nc1ncncc1-c1ccnc2c1cnn2-c1ccc(F)cc1 please.
**A:** 46

----------
- assay-method-text: Metabolic stability in rat liver microsomes assessed as parent compound remaining; further: time not given here
- Assay type: ADME, Microsome
Attribute: Stability

smiles-input	Stability
Nc1ncncc1-c1ccnc2c1cnn2-c1ncccc1C(F)(F)F	84%
Fc1ccc(-n2ncc3c(-c4cncnc4C4CC4)ccnc32)cc1	78%
Fc1ccc(-n2ncc3c(-c4cncnc4C(F)(F)F)ccnc32)cc1	63%

**Q:** Tell me measured Stability for COc1ccncc1-c1ccnc2c1cnn2-c1ccc(F)cc1 please.
**A:** 32%

**Q:** Tell me measured Stability for COc1cccc(-n2ncc3c(-c4cnccc4C)ccnc32)c1 please.
**A:** 6%

**Q:** Tell me measured Stability for Cc1ccncc1-c1cccc2c(-c3ccccc3)cnn12 please.
**A:** 3%

**Q:** Tell me measured Stability for Fc1ccc(-n2ncc3c(-c4cncnc4NC4CC4)ccnc32)cc1 please.
**A:** 27%

**Q:** Tell me measured Stability for Cc1ccncc1-c1ccnc2c1cnn2-c1ccccc1 please.
**A:** 4%

**Q:** Tell me measured Stability for Cc1ccncc1-c1ccnc2c1cnn2CC(F)(F)F please.
**A:** 30%

**Q:** Tell me measured Stability for Cn1cncc1-c1ccnc2c1cnn2-c1ccc(F)cc1 please.
**A:** 56%

**Q:** Tell me measured Stability for Nc1ncncc1-c1ccnc2c1cnn2-c1cccc(S(N)(=O)=O)c1 please.
**A:** 89%

----------
Attribute: pIC50
- assay-system: Steroid 17-alpha-hydroxylase/17,20 lyase (Homo sapiens, UniProt P05093)
- Sequence (P05093 whole entry): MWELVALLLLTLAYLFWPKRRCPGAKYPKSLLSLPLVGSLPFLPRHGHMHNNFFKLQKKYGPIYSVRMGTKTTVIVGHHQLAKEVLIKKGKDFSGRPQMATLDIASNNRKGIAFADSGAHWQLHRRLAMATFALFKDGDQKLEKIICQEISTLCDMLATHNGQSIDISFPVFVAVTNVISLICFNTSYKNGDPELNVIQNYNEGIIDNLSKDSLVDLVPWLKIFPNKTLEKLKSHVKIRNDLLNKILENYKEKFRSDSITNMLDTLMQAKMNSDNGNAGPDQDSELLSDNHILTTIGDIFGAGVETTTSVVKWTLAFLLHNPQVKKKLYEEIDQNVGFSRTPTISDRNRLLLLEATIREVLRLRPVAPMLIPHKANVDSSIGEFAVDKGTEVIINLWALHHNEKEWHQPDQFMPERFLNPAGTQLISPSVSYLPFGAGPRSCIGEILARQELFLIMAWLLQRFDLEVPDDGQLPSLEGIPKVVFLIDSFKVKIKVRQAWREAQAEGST
- assay-method-text: Inhibition of human CYP17A1
- Format: ADME
A value of pIC50 is the negative decimal logarithm of a concentration given in moles per litre.

See these solved cases before continuing.
smiles-input	assay-system	result
Fc1ccc(-n2ncc3c(-c4cncnc4NC4CC4)ccnc32)cc1	Steroid 17-alpha-hydroxylase/17,20 lyase (Homo sapiens, UniProt P05093)	7.34
Cc1ccncc1-c1ccnc2c1cnn2-c1nccs1	Steroid 17-alpha-hydroxylase/17,20 lyase (Homo sapiens, UniProt P05093)	7.04
Cc1ccncc1-c1ccnc2c1cnn2Cc1ccc(F)cc1	Steroid 17-alpha-hydroxylase/17,20 lyase (Homo sapiens, UniProt P05093)	6.10
COc1cccc(-n2ncc3c(-c4cnccc4C)ccnc32)c1	Steroid 17-alpha-hydroxylase/17,20 lyase (Homo sapiens, UniProt P05093)	8.52

**Q:** Tell me measured pIC50 for Cc1ccncc1-c1ccnc2c1cnn2-c1cccc(F)c1 please.
**A:** 7.57

**Q:** Tell me measured pIC50 for Cc1ccncc1-c1ccnc2c1cnn2-c1ccc(F)cc1 please.
**A:** 8.22

----------
- assay-system: Steroid 17-alpha-hydroxylase/17,20 lyase (Homo sapiens)
- assay-method-text: Selectivity ratio for inhibition of human CYP17A1 hydroxylase activity to inhibition of human CYP17A1 lyase activity
- Format: ADME
Label f if Ratio falls below 10; label t in every other case.

smiles-input	class-assignment
Cc1ccncc1-c1ccnc2c1cnn2-c1cccc(F)c1	t

**Q:** Does Ratio meet or surpass 10 for Nc1ncncc1-c1ccnc2c1cnn2-c1ncccc1C(F)(F)F ?
**A:** f

**Q:** Does Ratio meet or surpass 10 for Cc1ccncc1-c1ccnc2c1cnn2CC(F)(F)F ?
**A:** t

**Q:** Does Ratio meet or surpass 10 for Fc1ccc(-n2ncc3c(-c4cncnc4NC4CC4)ccnc32)cc1 ?
**A:** f

**Q:** Does Ratio meet or surpass 10 for Cc1ccncc1-c1ccnc2c1cnn2-c1ccc(F)cc1F ?
**A:** t
